Ki by entry:
testTarget: Synaptic vesicular amine transporter (Rattus norvegicus, UniProt Q01827)
Sequence (Q01827 whole entry): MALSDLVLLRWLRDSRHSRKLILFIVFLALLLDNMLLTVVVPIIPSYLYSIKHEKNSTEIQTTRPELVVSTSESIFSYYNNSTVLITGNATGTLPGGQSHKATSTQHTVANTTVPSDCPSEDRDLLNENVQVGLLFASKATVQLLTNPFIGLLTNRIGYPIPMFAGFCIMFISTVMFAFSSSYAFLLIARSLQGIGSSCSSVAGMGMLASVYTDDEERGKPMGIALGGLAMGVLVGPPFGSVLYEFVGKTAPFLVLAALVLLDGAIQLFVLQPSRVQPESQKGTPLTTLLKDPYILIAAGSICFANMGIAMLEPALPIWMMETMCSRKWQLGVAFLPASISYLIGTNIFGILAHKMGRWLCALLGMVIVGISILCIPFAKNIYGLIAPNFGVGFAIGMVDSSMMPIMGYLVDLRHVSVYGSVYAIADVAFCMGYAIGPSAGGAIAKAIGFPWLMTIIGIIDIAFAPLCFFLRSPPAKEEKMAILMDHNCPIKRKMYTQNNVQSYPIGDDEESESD
experimentSummary: Inhibition of VMAT2-mediated [3H]dopamine uptake in rat synaptic vesicle membranes
Assay type: cell membranes, Membrane
# number only, unit nM dropped from output

{"columns": ["compoundString", "Ki (nM)"],
 "data": [
  ["CN1[C@@H](CCc2c[nH]c3ccccc23)CCC[C@H]1CCc1c[nH]c2ccccc12", 2130],
  ["CN1[C@@H](CCc2ccc3ccccc3n2)CCC[C@H]1CCc1ccc2ccccc2n1", 67],
  ["CN1[C@@H](CCc2ccncc2)CCC[C@H]1CCc1ccncc1", 5230],
  ["CN1[C@@H](CCc2ccnc3ccccc23)CCC[C@H]1CCc1ccnc2ccccc12.Cl", 51]
]}

Consider now this further compound.
Which measured Ki value corresponds to "CN1[C@@H](CCc2cccnc2)CCC[C@H]1CCc1cccnc1" ?
3720
